Reference source: patent US11046680B1

target_or_system: human APJ receptor (Homo sapiens (Human), UniProt P35414)
Sequence (P35414 whole entry): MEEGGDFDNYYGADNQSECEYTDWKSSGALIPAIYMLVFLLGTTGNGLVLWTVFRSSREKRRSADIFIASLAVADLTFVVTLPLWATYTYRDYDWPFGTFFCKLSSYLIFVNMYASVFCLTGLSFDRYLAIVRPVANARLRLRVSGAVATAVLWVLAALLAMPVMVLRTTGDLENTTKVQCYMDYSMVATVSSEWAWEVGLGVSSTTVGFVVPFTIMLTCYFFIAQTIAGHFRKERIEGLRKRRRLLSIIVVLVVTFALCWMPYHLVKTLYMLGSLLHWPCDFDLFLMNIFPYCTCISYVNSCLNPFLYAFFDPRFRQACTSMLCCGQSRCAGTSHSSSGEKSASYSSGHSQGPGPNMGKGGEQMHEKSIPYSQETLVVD
test_details: biochemical
test_conditions: [35S]GTPγS binding, CHO membranes expressing human APJ receptor; read-out: Activity hAPJ SPA EC50 IP
Cut-off 2 nM on EC50: below means Yes, at or above means No.

molecule | target_or_system | assigned_category
CCn1ccc(-c2nnc(NS(=O)(=O)[C@@H](C)[C@H](C)c3ncc(F)cn3)n2-c2c(OC)cccc2OC)n1 | human APJ receptor (Homo sapiens (Human), UniProt P35414) | Yes
CCO[C@H](c1ncc(F)cn1)[C@H](C)S(=O)(=O)Nc1nnc(-c2ccn(C)n2)n1-c1c(OC)cccc1OC | human APJ receptor (Homo sapiens (Human), UniProt P35414) | Yes
COc1cnc([C@H](C)[C@H](C)S(=O)(=O)Nc2nnc(-c3ccn(C)n3)n2-c2c(OC)ncnc2OC)nc1 | human APJ receptor (Homo sapiens (Human), UniProt P35414) | Yes
COCC1(n2c(NS(=O)(=O)[C@@H](C)[C@H](OC)c3ncc(Cl)cn3)nnc2-c2n[nH]c3ccccc23)CC1 | human APJ receptor (Homo sapiens (Human), UniProt P35414) | No
CCO[C@H](c1ncc(Cl)cn1)[C@H](C)S(=O)(=O)Nc1nnc(-c2ccn(CC)n2)n1-c1c(OC)cccc1OC | human APJ receptor (Homo sapiens (Human), UniProt P35414) | Yes
COc1ccccc1-n1c(NS(=O)(=O)Cc2ccc(Cl)cc2)nnc1-c1cccs1 [Example 234.0] | human APJ receptor (Homo sapiens (Human), UniProt P35414) | No
COCC[C@@H]([C@H](C)c1ncc(F)cn1)S(=O)(=O)Nc1nnc(-c2nc(C)cs2)n1-c1c(OC)cccc1OC (single isomer, unassigned) [Example 21.0] | human APJ receptor (Homo sapiens (Human), UniProt P35414) | No
COc1cccc(OC)c1-n1c(NS(=O)(=O)[C@H](C)[C@H](O)c2ncc(C)cn2)nnc1-c1nc(C)cs1 (single isomer, unassigned) [Example 317.0] | human APJ receptor (Homo sapiens (Human), UniProt P35414) | No
COc1cccc(OC)c1-n1c(NS(=O)(=O)[C@H](C)[C@@H](C)c2ncc(Cl)cn2)nnc1-c1n[nH]c2ccccc12 | human APJ receptor (Homo sapiens (Human), UniProt P35414) | No
COCC1(n2c(NS(=O)(=O)[C@@H](C)[C@H](OC)c3ncc(Cl)cn3)nnc2-c2cnn3ccccc23)CCC1 | human APJ receptor (Homo sapiens (Human), UniProt P35414) | No
COc1cccc(OC)c1-n1c(NS(=O)(=O)CCc2ccc(Cl)cc2)nnc1-c1nc(C)cs1 | human APJ receptor (Homo sapiens (Human), UniProt P35414) | No
COc1cncc(-c2nnc(NS(=O)(=O)[C@@H](C)Cc3ncc(F)cn3)n2-c2c(OC)cccc2OC)n1 (single isomer, unassigned) | human APJ receptor (Homo sapiens (Human), UniProt P35414) | No
COc1cccc(OC)c1-n1c(NS(=O)(=O)[C@@H](C)[C@H](OC)c2ncc(C)cn2)nnc1-c1ccc(Cl)s1 | human APJ receptor (Homo sapiens (Human), UniProt P35414) | Yes
COc1cccc(OC)c1-n1c(NS(=O)(=O)[C@@H](C)[C@H](OC)c2ncc(Cl)cn2)nnc1-c1cc(C)[nH]n1 | human APJ receptor (Homo sapiens (Human), UniProt P35414) | Yes
COc1cccc(OC)c1-n1c(NS(=O)(=O)[C@@H](C)[C@H](OC)c2ncc(Cl)cn2)nnc1-c1ncnc2cc[nH]c12 | human APJ receptor (Homo sapiens (Human), UniProt P35414) | No
COc1cccc(OC)c1-n1c(NS(=O)(=O)[C@@H](C)[C@H](C)c2cnc(C)cn2)nnc1-c1ccn(C)n1 | human APJ receptor (Homo sapiens (Human), UniProt P35414) | No
